Tested on: Bacillus cereus
Conditions: Bacillus cereus, triplicate 2

Chain | Minimum inhibitory concentration
GSLHGFMYRYLKNMVLNLF [Cs01] | 64 µM
ANRLLEAYKMLLKFLGNLR [Gr02] | 4 µM
GLLFKELQKLIRYQIFIGK [Tc10] | 512 µM
GAKLAKKQVRALGKFFSF [At03] | 512 µM
GFKLGRKLVKVFKWII [Gr01] | 1 µM
IKLRNVLKYLFRIDVIKEDIL [Tc03] | 128 µM
LHRLVKLVAALLRGYASKVDTH [Tc08] | 8 µM

----------
The entries below come with measured Minimum inhibitory concentration values attached.
Tested on: Bacillus cereus
Conditions: Bacillus cereus, triplicate 2
Measured Quantity: Minimum inhibitory concentration

Chain | Measured Quantity | Experimental Result
FFGHIWHGARTLFRDVFA [Cs02] | Minimum inhibitory concentration | 64 µM
GFKDLLKGAAKALVKTVLF [Asc-8, Ascaphin 8, reference compound] | Minimum inhibitory concentration | 4 µM
GSLHGFMYKYLKTLVLRLY [Zm01] | Minimum inhibitory concentration | 64 µM
KVLSKVHTLLKAVLAL [At02] | Minimum inhibitory concentration | 4 µM
GKILKYLLYLLRKYANLIIR [Tc02] | Minimum inhibitory concentration | 16 µM
GSLHGFMYKYLKNMVLNLF [Tc06] | Minimum inhibitory concentration | 64 µM
